plate-normalised HSF1 focus index listing for selected compounds.
Experiment: compounds altering HSF1 focus formation in cells – imaging, Selleck Cancer Library (AID 1347162)
Settings: human cells, HSF1 nuclear foci imaging, at 10 µM; hits give low values
Form field (numeric): enter value without unit.

Cc1cc(/C=c2/sc3nc4ccccc4n3c2=O)c(C)n1-c1ccccc1 = 1.18
CC(C)c1ccccc1Cc1cc(C(=O)Nc2ccc(S(=O)(=O)c3ccccc3C(C)(C)C)cc2)c(O)c(O)c1O = 0.912
Cc1cnc(NC(=O)Nc2cc(Br)c(C)cc2OC[C@@H]2CNCCO2)cn1 = 1.16
CCOc1ccc(Cc2cc([C@@H]3O[C@H](CO)[C@@H](O)[C@H](O)[C@H]3O)ccc2Cl)cc1 = 1.07
CN1CCN(CCOc2cc(OC3CCOCC3)c3c(Nc4c(Cl)ccc5c4OCO5)ncnc3c2)CC1 = 0.94
OCCn1cc(-c2cnc3nnn(Cc4ccc5ncccc5c4)c3n2)cn1 = 1.17

GET /value?item= Cc1nnc(C(C)C)n1C1CC2CCC(C1)N2CC[C@H](NC(=O)C1CCC(F)(F)CC1)c1ccccc1 (stereo partly drawn) &field=plate-normalised HSF1 focus index returns 1.04

GET /value?item= "CC(=O)c1c(C)c2cnc(Nc3ccc(N4CCNCC4)cn3)nc2n(C2CCCC2)c1=O" &field=plate-normalised HSF1 focus index returns 0.38

GET /value?item= "C#CCN(C)CC1=Cc2ccccc2Oc2ccccc21" &field=plate-normalised HSF1 focus index returns 1.15

GET /value?item= "CCNC(=O)c1noc(-c2cc(C(C)C)c(O)cc2O)c1-c1ccc(CN2CCOCC2)cc1" &field=plate-normalised HSF1 focus index returns 1.08

Source: PubChem BioAssay
